- MEASUREMENT TARGET: DNA topoisomerase 2-alpha (Homo sapiens)
- Sequence (P11388 whole entry): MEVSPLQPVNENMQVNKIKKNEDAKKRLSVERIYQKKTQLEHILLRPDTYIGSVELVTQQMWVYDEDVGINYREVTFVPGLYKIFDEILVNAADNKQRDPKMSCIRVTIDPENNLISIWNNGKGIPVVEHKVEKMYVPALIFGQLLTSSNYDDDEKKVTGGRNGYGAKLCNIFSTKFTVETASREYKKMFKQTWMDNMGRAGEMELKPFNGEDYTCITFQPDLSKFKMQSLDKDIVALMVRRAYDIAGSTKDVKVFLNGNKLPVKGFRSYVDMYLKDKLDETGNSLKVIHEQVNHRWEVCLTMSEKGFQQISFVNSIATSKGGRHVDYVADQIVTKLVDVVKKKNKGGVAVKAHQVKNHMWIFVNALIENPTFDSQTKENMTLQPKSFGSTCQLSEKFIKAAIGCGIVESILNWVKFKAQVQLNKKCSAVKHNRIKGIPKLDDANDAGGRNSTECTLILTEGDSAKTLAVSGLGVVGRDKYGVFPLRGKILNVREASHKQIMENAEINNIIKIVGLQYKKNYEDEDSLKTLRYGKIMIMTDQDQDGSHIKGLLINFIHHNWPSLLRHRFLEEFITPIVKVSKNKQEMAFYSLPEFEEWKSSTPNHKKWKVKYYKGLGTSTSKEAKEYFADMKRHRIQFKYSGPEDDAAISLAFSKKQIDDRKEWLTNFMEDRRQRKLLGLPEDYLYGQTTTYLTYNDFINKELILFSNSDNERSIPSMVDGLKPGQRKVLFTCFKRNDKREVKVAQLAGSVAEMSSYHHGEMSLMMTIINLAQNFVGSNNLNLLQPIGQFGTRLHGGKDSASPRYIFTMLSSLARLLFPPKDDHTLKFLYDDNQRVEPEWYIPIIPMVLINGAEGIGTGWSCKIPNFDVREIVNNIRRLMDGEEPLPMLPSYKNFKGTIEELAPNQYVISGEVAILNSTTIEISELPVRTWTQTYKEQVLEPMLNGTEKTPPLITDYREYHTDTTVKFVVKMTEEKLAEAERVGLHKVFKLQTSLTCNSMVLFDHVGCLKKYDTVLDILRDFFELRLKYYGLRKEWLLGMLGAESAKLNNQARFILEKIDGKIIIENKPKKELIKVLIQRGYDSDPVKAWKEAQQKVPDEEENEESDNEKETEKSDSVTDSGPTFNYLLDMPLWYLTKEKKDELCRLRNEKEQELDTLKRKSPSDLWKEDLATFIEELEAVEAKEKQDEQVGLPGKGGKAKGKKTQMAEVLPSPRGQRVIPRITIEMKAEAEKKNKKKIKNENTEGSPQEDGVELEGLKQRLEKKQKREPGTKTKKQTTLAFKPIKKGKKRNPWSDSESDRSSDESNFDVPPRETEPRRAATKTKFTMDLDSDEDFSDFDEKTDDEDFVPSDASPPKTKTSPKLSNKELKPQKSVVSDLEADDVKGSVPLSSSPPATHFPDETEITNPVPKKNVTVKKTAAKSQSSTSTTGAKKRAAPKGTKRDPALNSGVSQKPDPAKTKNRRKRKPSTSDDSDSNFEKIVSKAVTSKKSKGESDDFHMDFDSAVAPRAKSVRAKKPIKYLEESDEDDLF
- EXPERIMENT SUMMARY: Inhibition of human topoisomerase-2 alpha at 100 uM using supercoiled pBR322 DNA as substrate after 30 mins by agarose gel electrophoresis method relative to control
ATTRIBUTE MEASURED: inhibition (%)

{"COMPOUND": "CCOc1cc(OCC2CO2)cc2oc3ccccc3c(=O)c12 (stereo not drawn)", "inhibition (%)": 0}

A = CCCCCOc1cc(OCC2CO2)cc2oc3ccccc3c(=O)c12 (stereo not drawn)
B = CCCCNCC(O)COc1cc(OCc2cccc(Cl)c2)c2c(=O)c3ccccc3oc2c1 (stereo not drawn)
Given A and B , report the one with the higher recorded inhibition. Pick one and reply with its label.
B

---

The entries below come with measured pIC50 values attached.
- EXPERIMENT SUMMARY: Cytotoxicity against human HCT15 cells assessed as reduction in cell growth after 72 hrs by CCK8 assay
- Type: functional, cell-based
- ASSAY CONDITIONS: HCT-15, 72 h
When answering, recall that pIC50 equals minus log10 of the concentration in mol/L, and write that number alone.

Example results:
{"COMPOUND": "COc1ccc(COc2cc(OCC3CO3)cc3oc4ccccc4c(=O)c23)cc1 (stereo unspecified)", "VALUE": 5.76}
{"COMPOUND": "CCCCNCC(O)COc1cc(OCCc2ccc(Cl)cc2)c2c(=O)c3ccccc3oc2c1 (stereo unspecified)", "VALUE": 5.67}
{"COMPOUND": "O=c1c2ccccc2oc2cc(OCC3CO3)cc(OCc3cccc(Cl)c3)c12 (stereo unspecified)", "VALUE": 5.71}
{"COMPOUND": "CCCCNCC(O)COc1cc(OCc2ccccc2)c2c(=O)c3ccccc3oc2c1 (stereo unspecified)", "VALUE": 5.51}
{"COMPOUND": "O=c1c2ccccc2oc2cc(OCC3CO3)cc(OCCc3cccc(Cl)c3)c12 (stereo unspecified)", "VALUE": 5.38}

What value of pIC50 has been recorded for this entry: CC[C@@]1(O)C(=O)OCc2c1cc1n(c2=O)Cc2cc3ccccc3nc2-1 [CAMPTOTHECIN]
8.85

Please look up its pIC50: COc1cccc2c(=O)c3c(OCCc4ccc(Cl)cc4)cc(OCC4CO4)cc3oc12 (stereo unspecified)
4.34

Name the recorded pIC50 for CCCCNCC(O)COc1cc(OCc2cccc(OC)c2)c2c(=O)c3cccc(OC)c3oc2c1 (stereo unspecified) .
5.76

Param item = CCCCNCC(O)COc1cc(OCC)c2c(=O)c3cccc(OC)c3oc2c1 (stereo unspecified) ; retrieve measured pIC50.
4.97

Would you kindly share the measured pIC50 for CCCCNCC(O)COc1cc(OCc2ccc(OC)cc2)c2c(=O)c3ccccc3oc2c1 (stereo unspecified) ?
5.66

---

- EXPERIMENT SUMMARY: Cytotoxicity against human HCT15 cells assessed as reduction in cell growth after 72 hrs by CCK8 assay
- Format: functional, cell-based
- ASSAY CONDITIONS: HCT-15, 72 h
ATTRIBUTE MEASURED: IC50 (µM)
I only need the number, in µM, no unit after it.

// solved cases for IC50 follow
{"COMPOUND": "CCCCNCC(O)COc1cc(OC(C)C)c2c(=O)c3ccccc3oc2c1 (stereo unspecified)", "MEASUREMENT UNIT": "µM", "VALUE": 43.4}
{"COMPOUND": "CCCCNCC(O)COc1cc(OCc2ccccc2)c2c(=O)c3cccc(OC)c3oc2c1 (stereo unspecified)", "MEASUREMENT UNIT": "µM", "VALUE": 2.08}
{"COMPOUND": "CCCCNCC(O)COc1cc(OC(C)C)c2c(=O)c3cccc(OC)c3oc2c1 (stereo unspecified)", "MEASUREMENT UNIT": "µM", "VALUE": 9.6}

Find the recorded IC50 belonging to CCCCNCC(O)COc1cc(OCc2cccc(C(F)(F)F)c2)c2c(=O)c3cccc(OC)c3oc2c1 (stereo unspecified) and report it.
2.62

# get_value(readout='IC50', item= COc1cccc(COc2cc(OCC3CO3)cc3oc4c(OC)cccc4c(=O)c23)c1 (stereo unspecified) )
0.35

Dear colleague, I am looking for the recorded IC50 of the following compound: CCCCCOc1cc(OCC2CO2)cc2oc3ccccc3c(=O)c12 (stereo unspecified)
3.28

I am curious: what IC50 value has been reported for COc1cccc(COc2cc(OCC3CO3)cc3oc4ccccc4c(=O)c23)c1 (stereo unspecified) ?
1.49

Entry CCCCNCC(O)COc1cc(OCC)c2c(=O)c3ccccc3oc2c1 (stereo unspecified) : reported IC50 = ?
28.2

Reported IC50 for O=c1c2ccccc2oc2cc(OCC3CO3)cc(OCCc3ccc(Cl)cc3)c12 (stereo unspecified) : what is it?
5.27

Dear colleague, I am looking for the recorded IC50 of the following compound: COc1cccc2c(=O)c3c(OC(C)C)cc(OCC4CO4)cc3oc12 (stereo unspecified)
0.31

Entry under review: CCCCNCC(O)COc1cc(OCCCC)c2c(=O)c3cccc(OC)c3oc2c1 (stereo unspecified) . Reported IC50?
6.02
